These measurements were taken from patent US8163909B2.

Listed next: entries and their corresponding IC50.
- system tested: CYP2D6 (Homo sapiens, UniProt P10635)
- Sequence (P10635 whole entry): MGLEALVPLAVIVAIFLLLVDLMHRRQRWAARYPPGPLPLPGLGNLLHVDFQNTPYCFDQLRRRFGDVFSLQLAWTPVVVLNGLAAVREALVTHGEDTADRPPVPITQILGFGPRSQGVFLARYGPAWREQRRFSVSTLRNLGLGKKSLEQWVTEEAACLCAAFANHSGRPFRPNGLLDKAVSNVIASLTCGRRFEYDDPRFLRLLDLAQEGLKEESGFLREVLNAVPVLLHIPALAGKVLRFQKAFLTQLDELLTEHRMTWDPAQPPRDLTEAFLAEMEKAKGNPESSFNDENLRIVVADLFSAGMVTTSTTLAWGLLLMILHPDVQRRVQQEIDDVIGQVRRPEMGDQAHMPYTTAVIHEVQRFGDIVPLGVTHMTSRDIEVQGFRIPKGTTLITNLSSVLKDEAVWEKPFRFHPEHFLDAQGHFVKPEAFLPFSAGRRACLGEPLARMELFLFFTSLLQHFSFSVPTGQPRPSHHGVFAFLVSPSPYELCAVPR
- method description: CYP2D6 inhibition assay (bufuralol, pooled human liver microsomes)
- test conditions: 2D6 IC50 (uM), CYP2D6 inhibition
measured attribute: IC50 (µM)

- Cc1ccccc1CN1CCO[C@H](C(=O)N[C@@H](Cc2ccc(F)cc2)[C@H](O)CN[C@H]2CC3(CCC3)Oc3ncc(CC(C)(C)C)cc32)C1: 2.7
- CO[C@H](C)C(=O)N[C@@H](Cc1cc(F)cc(F)c1)[C@H](O)CN[C@H]1CC2(CCC2)Oc2c1cc(C1CC1)cc2-n1ccnc1: 0.6
- Cc1ccccc1CN1CCO[C@@H](C(=O)N[C@@H](Cc2ccc(F)cc2)[C@H](O)CN[C@H]2CC3(CCC3)Oc3ncc(CC(C)(C)C)cc32)C1: 5.1
- CO[C@H](C)C(=O)N[C@@H](Cc1ccc2c(c1)OCO2)[C@H](O)CN[C@H]1CC2(CCC2)Oc2c1cc(CC(C)C)nc2-c1ccncc1: 0.8
- COCC(=O)N[C@@H](Cc1cc(F)cc(-c2nccs2)c1)[C@H](O)CN[C@H]1CC2(CCC2)Oc2ncc(C3CC3)cc21: 1.6
- CO[C@H](C)C(=O)N[C@@H](Cc1cc(F)cc(F)c1)[C@H](O)CN[C@H]1CC2(CCC2)Oc2c1cc(CC(C)C)nc2-c1cncn1C: 2.8
- Cc1cccc(CN2CCO[C@H](C(=O)N[C@@H](Cc3ccc(F)cc3)[C@H](O)CN[C@H]3CC4(CCC4)Oc4ncc(CC(C)(C)C)cc43)C2)c1: 3
- COCC(=O)N[C@@H](Cc1cc(F)cc(F)c1)[C@H](O)CN[C@H]1CC2(CCC2)Oc2c1cc(CC(C)C)nc2-c1ccncc1: 1.1
- Cc1ccc(CN2CCO[C@@H](C(=O)N[C@@H](Cc3ccc(F)cc3)[C@H](O)CN[C@H]3CC4(CCC4)Oc4ncc(CC(C)(C)C)cc43)C2)cc1: 3.7
- CC(=O)N[C@@H](Cc1ccc(-c2cncs2)cc1)[C@H](O)CN[C@H]1CC2(CCC2)Oc2ncc(CC(C)(C)C)cc21: 0.3
- COCC(=O)N[C@@H](Cc1ccc(F)cc1)[C@H](O)CN[C@H]1CC(C)(C)Oc2c1cc(CC(C)C)c1c2OCO1: 9.1
- COCC(=O)N[C@@H](Cc1ccc2c(c1)OCO2)[C@H](O)CN[C@H]1CC2(CCC2)Oc2c1cc(CC(C)C)nc2-c1ccncc1: 0.3

----------
Listed next: entries and their corresponding IC50.
- system tested: Beta Secretase enzyme (BACE) (Homo sapiens)
- Sequence (P56817 46-501): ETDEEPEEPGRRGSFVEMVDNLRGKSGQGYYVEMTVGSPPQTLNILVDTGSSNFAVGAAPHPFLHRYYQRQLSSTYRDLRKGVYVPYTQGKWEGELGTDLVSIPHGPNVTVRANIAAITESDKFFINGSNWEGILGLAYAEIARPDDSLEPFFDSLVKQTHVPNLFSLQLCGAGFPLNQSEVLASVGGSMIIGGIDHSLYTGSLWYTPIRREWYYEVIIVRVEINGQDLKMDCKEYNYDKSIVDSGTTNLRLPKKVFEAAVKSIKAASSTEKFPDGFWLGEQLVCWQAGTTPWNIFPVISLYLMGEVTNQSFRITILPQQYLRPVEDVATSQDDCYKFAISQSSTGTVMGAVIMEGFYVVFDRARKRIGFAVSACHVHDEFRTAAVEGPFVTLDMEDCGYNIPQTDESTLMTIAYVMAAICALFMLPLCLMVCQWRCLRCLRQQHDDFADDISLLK
- method description: In vitro enzymatic BACE FRET (fluorescence resonance energy transfer) assay;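 further: fluorescence read after 1 h with 50 nM quenched peptide substrate spanning the BACE cleavage site, in pH 4.2 acetate buffer containing 10% DMSO and nonionic detergent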
- Format: biochemical
- test conditions: BACE enzyme assay, IC50's in uM; read-out: BACE1 FRET assay
measured attribute: IC50

* CCOCC(=O)N[C@@H](Cc1cccc(-c2nccs2)c1)[C@H](O)CN[C@H]1CC2(CCC2)Oc2ncc([C@@H]3CC3(C)C)cc21 | 0.002 µM
* COCC(=O)N[C@@H](Cc1cccc(-c2nccs2)c1)[C@H](O)CN[C@H]1CC2(CCC2)Oc2ncc(CC(C)(C)F)cc21 | 0.006 µM
* C#Cc1cccc(C[C@H](NC(=O)[C@@H]2CCCO2)[C@H](O)CN[C@H]2CC3(CCC3)Oc3ncc(CC(C)(C)C)cc32)c1F | 0.021 µM
* CC#Cc1cccc(C[C@H](NC(=O)[C@@H](C)OC)[C@H](O)CN[C@H]2CC3(CCC3)Oc3ncc(CC(C)(C)C)cc32)c1 | 0.016 µM
* CC(C)(C)CCC(=O)N[C@@H](Cc1ccccc1)[C@H](O)CN[C@H]1CC2(CCC2)Oc2ncc(CC(C)(C)C)cc21 | 0.013 µM
* COCC(=O)N[C@@H](Cc1cc(Br)cc(OC)c1)[C@H](O)CN[C@H]1CC2(CCC2)Oc2ncc(CC(C)(C)C)cc21 | 0.014 µM

----------
- method description: Microsomal stability assay, human liver microsomes;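 further: pooled human liver microsomes at 0.25 mg/mL with 1 µM compound and NADPH at 37 °C, pH 7.4, for 30 min, unchanged parent quantified by LC-MS/MS against the 0 min sample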
- test conditions: human liver microsomes
measured attribute: log10 HLM (log10 of the value in µL/min/mg)

* CC(=O)N[C@@H](Cc1cccc(-n2ccnc2)c1)[C@H](O)CN[C@H]1CC2(CCC2)Oc2ccc(CC(C)(C)C)cc21 | 2.85
* CO[C@H](C)C(=O)N[C@@H](Cc1ccc(-c2nccs2)cc1)[C@H](O)CN[C@H]1CC2(CCC2)Oc2ncc(CC(C)(C)C)cc21 | 1.89
* CO[C@H](C)C(=O)N[C@@H](Cc1cncs1)[C@H](O)CN[C@H]1CC2(CCC2)Oc2c(-c3ccncc3)cc(CC(C)(C)C)cc21 | 1.76
* COCC(=O)N[C@@H](Cc1cc(F)cc(F)c1)[C@H](O)CN[C@H]1CC2(CCC2)Oc2c1cc(CC(C)(C)C)nc2-c1ccc2c(c1)OCO2 | 2.23
* CNc1nc(CC(C)C)cc2c1OC1(CCC1)C[C@@H]2NC[C@@H](O)[C@H](Cc1ccc2c(c1)OCO2)NC(=O)COC | 2.29
* CO[C@H](C)C(=O)N[C@@H](Cc1ccc2c(c1)OCO2)[C@H](O)CN[C@H]1CC2(CCC2)Oc2ncc(CC(C)(C)F)cc21 | 1.40
* Cc1ccc(CN2CCO[C@H](C(=O)N[C@@H](Cc3ccc(F)cc3)[C@H](O)CN[C@H]3CC4(CCC4)Oc4ncc(CC(C)(C)C)cc43)C2)cc1 | 2.49
* COCC(=O)N[C@@H](Cc1cccc(-n2ccnc2)c1)[C@H](O)CN[C@H]1CC2(CCC2)Oc2ncc(CC(C)(C)C)cc21 | 1.76
* Cc1ccccc1CN1CCO[C@H](C(=O)N[C@@H](Cc2ccc(F)cc2)[C@H](O)CN[C@H]2CC3(CCC3)Oc3ncc(CC(C)(C)C)cc32)C1 | 2.89
* CC(=O)N[C@@H](Cc1cccc(-c2ccncc2)c1)[C@H](O)CN[C@H]1CC2(CCC2)Oc2ncc(CC(C)(C)C)cc21 | 2.36
* CO[C@H](C)C(=O)N[C@@H](Cc1cc(F)cc(F)c1)[C@H](O)CN[C@H]1CC2(CCC2)Oc2cnc(CC(C)C)cc21 | 2.96
* CC(C)(C)Cc1cnc2c(c1)[C@@H](NC[C@@H](O)[C@H](Cc1ccc(F)cc1)NC(=O)[C@@H]1CN(Cc3ccccc3)CCO1)CC1(CCC1)O2 | 2.85
* COCC(=O)N[C@@H](Cc1cc(F)cc(F)c1)[C@H](O)CN[C@H]1CC(C)(C)Oc2c1cc(CC(C)C)c1c2OCO1 | 2.28
* CO[C@H](C)C(=O)N[C@@H](Cc1cc(F)cc(F)c1)[C@H](O)CN[C@H]1CC2(CCC2)Oc2c1cc(CC(C)(C)C)nc2-c1cncn1C | 1.41
* CC(=O)N[C@@H](Cc1ccc(F)cc1)[C@H](O)CN[C@H]1CC2(CCNC2)Oc2cnc(CC(C)(C)C)cc21 (stereo partly drawn) | 1.15
* CCOCC(=O)N[C@@H](Cc1cccc(F)c1)[C@H](O)CN[C@H]1CC2(CCC2)Oc2ncc(CC(C)(C)C)cc21 | 2.92
* COCC(=O)N[C@@H](Cc1ccc(F)cc1)[C@H](O)CN[C@H]1CC2(CCC2)Oc2c(-c3ccncc3)cc(CC(C)C)cc21 | 1.86
* CO[C@H](C)C(=O)N[C@@H](Cc1cc(F)cc(-c2nccs2)c1)[C@H](O)CN[C@H]1CC2(CCC2)Oc2ncc(CC(C)(C)F)cc21 | 1.60
* CC(=O)N[C@@H](Cc1cc(F)cc(-c2ccco2)c1)[C@H](O)CN[C@H]1CC2(CCC2)Oc2ccc(CC(C)(C)C)cc21 | 2.51
* COCC(=O)N[C@@H](Cc1cccc(F)c1)[C@H](O)CN[C@H]1CC2(CCC2)Oc2c(-c3ccncc3)cc(CC(C)C)cc21 | 1.81
* CO[C@H](C)C(=O)N[C@@H](Cc1cc(F)cc(F)c1)[C@H](O)CN[C@H]1CC2(CCC2)Oc2c1cc(CC(C)C)nc2-c1cncn1C | 1.20
* CO[C@H](C)C(=O)N[C@@H](Cc1cccc(F)c1)[C@H](O)CN[C@H]1CC2(CCC2)Oc2c(-c3ccncc3)cc(CC(C)C)cc21 | 1.81
* C#Cc1cc(F)cc(C[C@H](NC(C)=O)[C@H](O)CN[C@H]2CC3(CCC3)Oc3ncc(CC(C)(C)C)cc32)c1 | 1.88
* COCC(=O)N[C@@H](Cc1ccccc1)[C@H](O)CN[C@H]1CC2(CCC2)Oc2c(-c3ccncc3)cc(CC(C)C)cc21 | 1.88

----------
- system tested: CYP2D6 (Homo sapiens)
- method description: CYP2D6 inhibition assay (bufuralol, pooled human liver microsomes)
- test conditions: 2D6 IC50, CYP enzyme inhibition
measured attribute: IC50

• CC1(C)C[C@H]1c1cnc2c(c1)[C@@H](NC[C@@H](O)[C@H](Cc1cccc(-c3nccs3)c1)NC(=O)[C@@H]1CCCO1)CC1(CCC1)O2 = 500 nM
• COCC(=O)N[C@@H](Cc1cc(F)cc(-c2nccs2)c1)C(=O)CN[C@H]1CC2(CCC2)Oc2ncc(CC(C)C)cc21 = 500 nM
• CO[C@H](C)C(=O)N[C@@H](Cc1cc(-c2nccs2)ccc1F)[C@H](O)CN[C@H]1CC2(CCC2)Oc2ncc(CC(C)(C)C)cc21 = 1000 nM
• C#Cc1ccc(C[C@H](NC(=O)[C@@H](C)OC)[C@H](O)CN[C@H]2CC3(CCC3)Oc3ncc(CC(C)(C)C)cc32)cc1 = 3800 nM
• CCOCC(=O)N[C@@H](Cc1ccc(F)c(-c2nccs2)c1)[C@H](O)CN[C@H]1CC2(CCC2)Oc2ncc(CC(C)(C)C)cc21 = 500 nM
• COCC(=O)N[C@@H](Cc1cccc(-c2nccs2)c1)[C@H](O)CN[C@H]1CC2(CCC2)Oc2ncc(C3CCCC3)cc21 = 300 nM
